// provenance: ChEMBL document CHEMBL4251732

- Test system: CT26
- Test Details: Antiproliferative activity against mouse CT26 cells after 48 hrs by CCK-8 assay
- Assay type: functional, cell-based
- Run Parameters: CT26, 48 h
pIC50: −log10 of the molar value.
Readout Kind: pIC50

O=C(CCCCCC(=O)NCCNc1nonc1/C(=N/O)Nc1ccc(F)c(Br)c1)NO 4.02

[1] O=C(/C=C/c1ccc(C(=O)NCCNc2nonc2/C(=N/O)Nc2ccc(F)c(Br)c2)cc1)NO
[2] Nc1ccccc1NC(=O)c1ccc(C(=O)NCCNc2nonc2/C(=N/O)Nc2ccc(F)c(Br)c2)cn1
Task: Kindly identify the item with the lower pIC50 figure among these two: 1 and 2 Your answer should be the label of the entry you select.
Result: 2

----------
- Measured On: Histone deacetylase 1 (Homo sapiens, UniProt Q13547)
- Sequence (Q13547 whole entry): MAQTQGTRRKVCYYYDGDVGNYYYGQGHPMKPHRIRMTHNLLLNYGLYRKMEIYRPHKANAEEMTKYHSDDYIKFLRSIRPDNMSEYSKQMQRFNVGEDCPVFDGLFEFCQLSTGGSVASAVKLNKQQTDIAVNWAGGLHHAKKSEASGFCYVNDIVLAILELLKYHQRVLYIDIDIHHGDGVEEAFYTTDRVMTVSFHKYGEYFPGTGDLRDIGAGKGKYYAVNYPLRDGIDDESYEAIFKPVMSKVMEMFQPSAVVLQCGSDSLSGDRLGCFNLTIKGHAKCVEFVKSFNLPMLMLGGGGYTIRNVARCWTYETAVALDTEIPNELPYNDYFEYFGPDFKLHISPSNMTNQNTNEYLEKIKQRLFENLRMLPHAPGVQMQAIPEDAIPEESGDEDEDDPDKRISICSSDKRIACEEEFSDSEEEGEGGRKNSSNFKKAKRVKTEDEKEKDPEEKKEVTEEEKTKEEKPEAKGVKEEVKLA
- Test Details: Inhibition of recombinant human full length HDAC1 using fluorogenic substrate 3 after 30 mins by fluorescence assay
Readout Kind: IC50 (nM)

O=C(CCCCCC(=O)NCCNc1nonc1/C(=N/O)Nc1ccc(F)c(Br)c1)NO 9.2
O=C(NO)c1ccc(C(=O)NCCNc2nonc2/C(=N/O)Nc2ccc(F)c(Br)c2)cc1 262
O=C(CCCCCCn1cc(-c2ccc(C(=O)NCCNc3nonc3/C(=N/O)Nc3ccc(F)c(Br)c3)cc2)nn1)NO 23.5
O=C(/C=C/c1cccc(C(=O)NCCNc2nonc2/C(=N/O)Nc2ccc(F)c(Br)c2)c1)NO 70.5

[P] O=C(CCCCC(=O)NCCNc1nonc1/C(=N/O)Nc1ccc(F)c(Br)c1)NO
[Q] Nc1ccccc1NC(=O)c1ccc(C(=O)NCCNc2nonc2/C(=N/O)Nc2ccc(F)c(Br)c2)s1
Task: Hey, which is lower on measured IC50, P or Q ? Select an item and report its label.
Result: P

----------
- Measured On: Indoleamine 2,3-dioxygenase 1 (Homo sapiens)
- Test Details: Inhibition of recombinant human GST-tagged IDO1 (1 to 404 residues) using D-Tryptophan as substrate
- Sequence (P14902 whole entry, the tested form may be a part): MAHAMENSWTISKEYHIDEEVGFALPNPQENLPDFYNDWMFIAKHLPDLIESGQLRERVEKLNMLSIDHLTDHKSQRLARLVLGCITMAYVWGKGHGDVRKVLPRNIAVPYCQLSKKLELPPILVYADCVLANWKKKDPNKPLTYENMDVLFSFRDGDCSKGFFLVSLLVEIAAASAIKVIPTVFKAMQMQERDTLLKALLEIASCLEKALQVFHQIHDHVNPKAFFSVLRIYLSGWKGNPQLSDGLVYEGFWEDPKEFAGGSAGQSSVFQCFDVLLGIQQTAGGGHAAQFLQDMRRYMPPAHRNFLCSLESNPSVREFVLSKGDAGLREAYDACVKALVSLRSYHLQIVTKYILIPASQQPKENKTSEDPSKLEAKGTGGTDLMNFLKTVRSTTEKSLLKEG
Readout Kind: IC50 (nM)

Nc1ccccc1NC(=O)c1ccc(C(=O)NCCNc2nonc2/C(=N/O)Nc2ccc(F)c(Br)c2)cn1 260
Nc1ccccc1NC(=O)c1ccc(C(=O)NCCNc2nonc2/C(=N/O)Nc2ccc(F)c(Br)c2)cc1 69
O=C(CCCC(=O)NCCNc1nonc1/C(=N/O)Nc1ccc(F)c(Br)c1)NO 133

[1] O=C(CCCCCC(=O)NCCNc1nonc1/C(=N/O)Nc1ccc(F)c(Br)c1)NO
[2] O=C(CCCCCCn1cc(-c2ccc(C(=O)NCCNc3nonc3/C(=N/O)Nc3ccc(F)c(Br)c3)cc2)nn1)NO
Task: Between the two listed entries 1 and 2 , which has its IC50 at the higher number? Could you answer with the label of the item you picked?
Result: 2

----------
- Measured On: Indoleamine 2,3-dioxygenase 1 (Homo sapiens, UniProt P14902)
- Test Details: Inhibition of recombinant human GST-tagged IDO1 (1 to 404 residues) at 1 uM using D-Tryptophan as substrate relative to control
- Sequence (P14902 whole entry, looked up, the tested form may be a part): as the sequence (P14902 whole entry, the tested form may be a part) above
Readout Kind: inhibition (%)

O=C(CCCCn1cc(-c2ccc(C(=O)NCCNc3nonc3/C(=N/O)Nc3ccc(F)c(Br)c3)cc2)nn1)NO 88
Nc1ccccc1NC(=O)c1ccc(C(=O)NCCNc2nonc2/C(=N/O)Nc2ccc(F)c(Br)c2)s1 76
O=C(CCCCCn1cc(-c2ccc(C(=O)NCCNc3nonc3/C(=N/O)Nc3ccc(F)c(Br)c3)cc2)nn1)NO 87
Nc1ccccc1NC(=O)c1cccc(C(=O)NCCNc2nonc2/C(=N/O)Nc2ccc(F)c(Br)c2)c1 79
O=C(NO)c1ccc(C(=O)NCCNc2nonc2/C(=N/O)Nc2ccc(F)c(Br)c2)cc1 95
